EXPERIMENTAL SYSTEM: ERα (Homo sapiens)
Sequence (P03372 1-595): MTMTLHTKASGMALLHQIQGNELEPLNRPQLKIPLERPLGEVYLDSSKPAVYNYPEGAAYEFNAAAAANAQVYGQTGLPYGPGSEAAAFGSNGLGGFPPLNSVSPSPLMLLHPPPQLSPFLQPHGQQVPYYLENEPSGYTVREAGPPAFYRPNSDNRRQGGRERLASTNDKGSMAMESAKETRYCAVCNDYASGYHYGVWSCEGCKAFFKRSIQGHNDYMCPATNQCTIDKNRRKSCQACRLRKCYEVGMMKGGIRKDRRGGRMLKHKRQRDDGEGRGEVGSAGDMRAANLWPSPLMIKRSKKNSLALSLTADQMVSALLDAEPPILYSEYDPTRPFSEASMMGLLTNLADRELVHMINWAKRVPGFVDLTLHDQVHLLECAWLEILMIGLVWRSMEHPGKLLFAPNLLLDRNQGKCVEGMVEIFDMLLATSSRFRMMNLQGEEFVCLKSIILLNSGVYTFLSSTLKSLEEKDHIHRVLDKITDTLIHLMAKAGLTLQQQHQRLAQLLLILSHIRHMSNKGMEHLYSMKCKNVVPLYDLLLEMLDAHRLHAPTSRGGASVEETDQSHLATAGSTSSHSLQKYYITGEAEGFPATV
TEST: ERE luciferase reporter gene assay in T47D-KBluc cells (target engagement)
Assay type: cell-based
Design: T47D human breast cancer cells stably transfected with estrogen responsive element/promoter/luciferase reporter gene; host or cells: T47D-KBluc cells
CONDITION LABEL: 10% FBS, 24 hours, Table 3 cereblon centric PROTACs, read-out: ER-α Luciferase IC50
Where a name gives a salt, the structure may show the parent alone.
Measured pIC50, listed per entry for reference.
Quick note: pIC50 values are minus log10 of concentrations in mol/L.

O=C1CCC(N2C(=O)c3ccc(NCCCOCCCOCCOc4ccc(Oc5c(-c6ccc(Br)cc6)sc6cc(O)ccc56)cc4)cc3C2=O)C(=O)N1 (centres unmarked) [Compound 172] :: 7.80
O=C1CCC(N2Cc3c(ccc(N4CCN(CC5CCN(CCOc6ccc(Oc7c(-c8ccc(C(F)(F)F)cc8)sc8cc(O)ccc78)cc6)CC5)CC4)c3F)C2=O)C(=O)N1 (centres unmarked) [Compound 201] :: 8.08
O=C1CCC(N2Cc3cc(N4CCC(CN5CCC(Oc6ccc(Oc7c(-c8ccc(C(F)(F)F)cc8)sc8cc(O)ccc78)cc6)CC5)CC4)ccc3C2=O)C(=O)N1 (centres unmarked) [Compound 187] :: 8.29
O=C1CCC(N2Cc3cc(NCCCOCCOCCOc4ccc(Oc5c(-c6ccc(Br)cc6)sc6cc(O)ccc56)cc4)ccc3C2=O)C(=O)N1 (centres unmarked) [Compound 171] :: 8.06
O=C1CCC(N2C(=O)c3ccc(N4CCN(CC5CCN(c6ccc(Oc7c(-c8ccc(O)cc8)sc8cc(O)ccc78)cc6)CC5)CC4)cc3C2=O)C(=O)N1 (centres unmarked) [Compound 245] :: 9.28
COc1ccc(-c2sc3cc(O)ccc3c2Oc2ccc(N3CCC(CN4CCN(c5ccc6c(c5)C(=O)N(C5CCC(=O)NC5=O)C6=O)CC4)CC3)cc2)cc1 (centres unmarked) [Compound 237] :: 8.31
O=C1CCC(N2C(=O)c3ccc(N4CCN(CC5CCN(CCOc6ccc(Oc7c(-c8ccc(Br)cc8)sc8cc(O)ccc78)cc6)CC5)CC4)cc3C2=O)C(=O)N1 (centres unmarked) [Compound 184] :: 7.88
O=C1CCC(N2C(=O)c3ccc(C4CCN(C5CCN(CCOc6ccc(Oc7c(-c8ccc(Br)cc8)sc8cc(O)ccc78)cc6)CC5)CC4)cc3C2=O)C(=O)N1 (centres unmarked) [Compound 190, Hydrochloride] :: 7.94

Ask: Would you kindly share the measured pIC50 for O=C1CCC(N2C(=O)c3ccc(CCCCN4CCCN(CCOc5ccc(Oc6c(-c7ccc(Br)cc7)sc7cc(O)ccc67)cc5)CC4)cc3C2=O)C(=O)N1 (centres unmarked) [Compound 197] ?
Result: 8.55

Ask: Would you kindly share the measured pIC50 for O=C1CCC(N2Cc3cc(N4CC(N5CCC(Oc6ccc(Oc7c(-c8ccc(Br)cc8)sc8cc(O)ccc78)cc6)CC5)C4)ccc3C2=O)C(=O)N1 (centres unmarked) [Compound 240] ?
Result: 8.92

Ask: Would you kindly share the measured pIC50 for O=C1CCC(N2Cc3cc(N4CCN(CC5CCN(c6ccc(Oc7c(-c8ccc(O)cc8)sc8cc(O)ccc78)cc6)CC5)CC4)ccc3C2=O)C(=O)N1 (centres unmarked) [Compound 244] ?
Result: 9.74
